test system: 786-0 renal; assay: NCI tumour cell line growth inhibition, 48 h; in the data active = GI50 below about 0.43 µM; inactive = the rest
Outcome (select one): yes (1) (active), no (0) (inactive)

Task item: What outcome does the record of this test show for CSc1ccc(C2=Nn3c(nnc3-c3ccc(F)c(Cl)c3)SC2)cc1 ?
Reply: no (0)

Task item: Test call, this compound: COc1ccc(-n2nnc3c(sc4ccccc43)c2=O)cc1
Reply: no (0)

Task item: Name the outcome recorded for CC(C)N(C(C)C)[PH+]1O[PH+](N(C(C)C)C(C)C)O[PH+](N(C(C)C)C(C)C)O[PH+](N(C(C)C)C(C)C)O[PH+](N(C(C)C)C(C)C)O1.[C-]#[O+].[C-]#[O+].[C-]#[O+].[C-]#[O+].[C-]#[O+].[C-]#[O+].[C-]#[O+].[Cr].[Cr] (stereo unspecified) in the assay.
Reply: no (0)

Task item: Answer briefly: the call reported for CS(=O)(=O)c1ccc(Cl)c([N+](=O)[O-])c1 in this assay.
Reply: no (0)

Task item: Tell me the recorded outcome of this test for Fc1cccc(COc2ccc(Nc3ncnc4sc(-c5ccco5)cc34)cc2Cl)c1 .
Reply: no (0)

Task item: // param item: Clc1ccc([O][In]([O]c2ccc(Cl)cn2)[O]c2ccc(Cl)cn2)nc1 ; yields the recorded call
Reply: no (0)

Task item: Test call, this compound: S=C(N/N=C/c1cc(Cl)cc(Cl)c1)NC12CC3CC(CC(C3)C1)C2
Reply: no (0)

Task item: Dear all, I need the recorded test outcome for C/C(=N\O)c1ccc(Nc2cc(-n3nnc4ccccc43)nc3ccccc23)cc1 , thank you.
Reply: no (0)

Task item: Please share the test call associated with Clc1ccc(COC(Cn2ccnc2)c2ccc(Cl)cc2Cl)cc1 (stereo unspecified) .
Reply: no (0)

Task item: Each compound tested received a call. Report the one for CC[C@H](C)[C@H](NC(=O)c1cnccn1)C(=O)N(C)[C@H](C[C@@H](OC(C)=O)c1nc(C(=O)N[C@@H](Cc2ccccc2)C[C@H](C)C(=O)OC)cs1)C(C)C .
Reply: no (0)

Task item: What outcome does the record of this test show for Cc1ccc(C(=O)Nc2ccc(CN3CCN(C)CC3)c(C(F)(F)F)c2)cc1C#Cc1cnc(N)c2ccc(F)cc12 ?
Reply: yes (1)

----------
system: NCI/ADR-RES ovarian; test: NCI tumour cell line growth inhibition, 48 h
For each of the compounds below, state its TGI.
Numeric only. Scale: µM

TGI reported for this compound CCN(c1ccc(CO)c(Cl)c1)C(C)c1ccc(F)cc1 (stereo not given) : 31.2

CNC(=S)NNc1ncnc2c1c(-c1ccc(Cl)cc1)cn2-c1ccc(C)cc1 yielded TGI of 34.4

----------
test system: CCRF-CEM leukemia; test: NCI tumour cell line growth inhibition, 48 h
Field: TGI. Provide a value for each of the molecules that follow.

Entry under test: COc1ccc(C2Oc3c(OC)cc(CCCO)cc3C2CO)cc1OC (configuration not stated) . Its TGI was > 100 µM

Value of TGI reported for the molecule N#Cc1nc(C2CCC(=O)O2)oc1N (configuration not stated) is > 100 µM

TGI reading for c1c(N2CCOCC2)ssc1=[N+]1CCOCC1 : > 100 µM

Noted for COc1cc(-c2oc3ccccc3c(=O)c2O)cc(OC)c1OC : its TGI reads > 30.5 µM

Given item COCC#C[C@@]1(O)CCCCC1CC(OC)OC (some centres not stated) , the value recorded as its TGI is > 100 µM

Recorded TGI (molecule Cc1cc(Cl)ccc1NC(=O)C(=O)Cc1nc2ccc(C(=O)c3ccccc3)cc2[nH]c1=O ): > 100 µM

Notebook: C=C(C)[C@H]1CC(=O)/C(C)=C\CC/C(C)=C/CC[C@@]2(C)O[C@@H]2C1 , TGI read as > 100 µM

The reported TGI of the molecule N=C(N)SCc1cn2ccccc2n1 was > 100 µM

TGI reading for COc1cc(-c2csc(NC(=O)c3cc(C(F)(F)F)cc(C(F)(F)F)c3)n2)cc(OC)c1OC : > 100 µM

GET /value?item= Nc1cc2c3c(cccc3c1)NC2=O &field=TGI returns > 100 µM

The molecule listed as Cc1cc(C)c2c(c1)CN1CN2Cc2cc(C)cc(C)c21 has a reported TGI of 68.2 µM

The molecule identified as COc1ccc(C(=O)N2c3ccccc3Sc3ccccc32)c(F)c1 registered its TGI at > 100 µM

Note to self: TGI recorded for CCN(c1ccc(CO)c(Cl)c1)C(C)c1ccc(F)cc1 (configuration not stated) was 41.2 µM

get_value(item= O=C(/C=C\Nc1ccccc1O)C(F)(F)F , readout=TGI) returns > 100 µM

Query COC1/C=C/OC2(C)Oc3c(C)c(O)c4c(c3C2=O)C(=O)C=C(NC(=O)/C(C)=C\C=C\C(C)C(OC=O)C(C)C(O)C(C)C(OC(C)=O)C1C)C4=O (configuration not stated) yields TGI of 6.4 µM

// TGI value for Cc1cn(CCCCCOC(=O)NC(CCCNC(N)=O)C(=O)O)c(=O)[nH]c1=O (configuration not stated) : > 100 µM

Query CSc1ccc(C2=Nn3c(nnc3-c3ccc(F)c(Cl)c3)SC2)cc1 yields TGI of > 100 µM

Please fill in: TGI reported for CC[O-].CC[O-].O=C1C(=C([O-])c2ccccc2)C(=O)c2ccccc21.O=C1C(=C([O-])c2ccccc2)C(=O)c2ccccc21.[Ti+4] = > 100 µM

TGI reading for O=c1[nH]c(=O)n(C2CC(O)C(CO)O2)cc1OC/C=C/Cc1ccccc1 (configuration not stated) : > 100 µM

response.value for O=C1CS/C(=N/N=C/c2cn(Cc3ccc(Cl)cc3Cl)c3ccccc23)N1 (field: TGI) = 56.4 µM

What the record says about CC(=O)c1cccc(N(/C=C/C(=O)C(F)(F)F)CC(=O)c2ccc(Cl)cc2)c1 : TGI is > 100 µM

Looking up O=c1nc(-c2ccccc2)c2c3c(cccn13)CCC2 , I see its TGI listed as > 100 µM

The reported measurements were obtained from PubChem BioAssay (NCI).
